- assayInfo: DNDI: Cytotoxicity against human MRC-5 lung fibroblast cells.
- experimentalContext: IC50

compound | IC50
Cc1nn2c(=O)cc(-c3ccc(F)cc3)[nH]c2c1-c1ccccc1 | 2.42 µM
CN(C)c1ccc(/C=C/c2cc[n+](C)cc2)cc1 | > 20.8 µM
CCCCC(=O)NC(c1cccs1)c1cc(Cl)c2cccnc2c1O (configuration not stated) | > 41.7 µM
O=c1cc(OC2=CS(=O)(=O)c3ccccc32)c2ccccc2o1 | 5.99 µM
Clc1ccc(CCNCc2c[nH]c3ccccc23)c(Cl)c1 | > 20.8 µM
COc1ccc(C2=NNc3cccc4c(OC)ccc2c34)cc1OC | > 41.7 µM
Cc1cc(Cl)cc(Cl)c1OCCCCCN1CCNCC1 | > 20.8 µM
Cc1cccc(-n2nnn(C3CC(=O)C4OCC3O4)c2=S)c1C (configuration not stated) | > 41.7 µM
C=CCS(=O)(=O)c1nc2ccccc2s1 | > 20.8 µM
CCN1CCN(C(c2cccnc2)c2cc(Cl)c3cccnc3c2O)CC1 (configuration not stated) | > 41.7 µM
Cc1nnc(-c2ccccc2)c(=O)n1/N=C/c1c(O)ccc2ccccc12 | > 4.17 µM
O=C(CN1C(=O)S/C(=C/c2ccccc2Cl)C1=O)N1CCOCC1 | > 41.7 µM

* * *

IC50 overview
- assayInfo: DNDI: Cytotoxicity against human MRC-5 lung fibroblast cells.
- experimentalContext: IC50
reportedProperty: IC50

compound | measuredValue
c1ccc2c(OCCCCCCNCC3CCCO3)cccc2c1 (configuration not stated) | > 41.7 µM
Cc1ccc(OCCCCCN2CCNCC2)c(C)c1 | > 41.7 µM
Cc1cc(Cl)n(C)c2nc3ccccc3c1-2 | > 10.4 µM
Oc1c(Br)cc(CN2CCOCC2)c2cccnc12 | > 20.8 µM
CC(=O)NC(c1cccs1)c1ccc2cccnc2c1O (configuration not stated) | 0.984 µM
COc1ccc(N2C(=O)CN(Cc3sccc3C)C2=S)cc1Cl | > 41.7 µM
N#CC1=C(N)Oc2[nH]nc(C(F)(F)F)c2C1c1cccs1 (configuration not stated) | > 41.7 µM

* * *

- assayInfo: DNDI: Cytotoxicity against human MRC-5 lung fibroblast cells.
- experimentalContext: IC50
reportedProperty: IC50

molecule | measuredValue
CC(C)(C)OC(=O)N/N=C\c1ccc(-c2cccc(Cl)c2)o1 | > 41.7 µM
CCC1(C)CC(CCNCc2ccccc2O)(c2ccc(F)cc2)CCO1 (centres undefined) | > 41.7 µM
COc1cc2nc(-c3cccnc3)nc(N3CCC[C@H]3CO)c2cc1OC | > 20.8 µM
O=C(COc1ccc(Cl)cc1Cl)NO | > 20.8 µM
NS(=O)(=O)c1ccc(/N=N/c2ccc(O)c3ncccc23)cc1 | > 20.8 µM
COc1ccc(C/C(N)=N/OC(=O)c2cccs2)cc1OC | > 41.7 µM
Clc1ccnc2c1ccc1nn[nH]c12 | > 41.7 µM
CN(C)S(=O)(=O)c1ccc(C(=O)Nc2nnc(-c3ccc(F)cc3)o2)cc1 | > 41.7 µM
COc1ccc(CNCCc2c[nH]c3ccccc23)c(OC)c1C | > 20.8 µM
Oc1c(Cl)cc(CN2CCCC2)c2cccnc12 | > 4.17 µM
CCC1CO/C(=C2\Sc3ccccc3C2=O)N1 (centres undefined) | > 20.8 µM
CC(C)(C)OC(=O)N1CCC[C@H]1c1nnc(SCc2cccc(Cl)c2)o1 | 2.87 µM
CCN1/C(=C\C=C/C2C=Cc3ccccc3N2CC)C=Cc2ccccc21 (centres undefined) | 5.14 µM
CC(C)C1CC(CCNCc2ccc(N(C)C)cc2)(c2ccccc2)CCO1 (centres undefined) | > 41.7 µM
CN(C)CCCNCCCc1ccc(C(C)(C)C)cc1 | 8.02 µM
Cc1cc(/C=N/n2cnnc2)c(C)n1-c1cccc(C(F)(F)F)c1 | > 41.7 µM
CCN1/C(=C/c2cccc[n+]2C)C=Cc2cc(C)ccc21 | > 20.8 µM
COc1cc(Cl)cc2c1Sc1ccccc1CC2N1CCNCC1 (centres undefined) | > 20.8 µM
Cc1cccc(NC(=O)Cn2cc(CO)c3ccccc32)c1 | > 4.17 µM
CN(C)CCCn1c(N)c(-c2nc3ccccc3[nH]2)c2nc(C#N)c(C#N)nc21 | > 41.7 µM
COCCN1CSC(=S)N(Cc2ccco2)C1 | > 4.17 µM
N=C(NOC(=O)N1CCOCC1)c1ccccc1 | > 4.17 µM
CN(C)c1ccc(/C=C/c2cc(-c3ccccc3)n(-c3ccccc3)[n+]2C)cc1 | > 20.8 µM
CN(C)c1ccc(/C=C/c2cc[n+](C)c3ccccc23)cc1 | > 2.08 µM

* * *

- assayInfo: DNDI: Cytotoxicity against human MRC-5 lung fibroblast cells.
- experimentalContext: IC50
pIC50: −log10 of the molar value.
reportedProperty: pIC50

molecule | measuredValue
CN(/C=C/C=C/C=C/C1=[N+](C)c2ccccc2C1(C)C)c1ccccc1 | < 4.68
CCOc1ccc2nc3cc(NCc4ccccc4OC)ccc3c(N)c2c1 | < 4.68
Cn1c(Cl)cnc1C1CC(=O)c2cc(Cl)ccc2O1 (stereo unspecified) | < 4.38
Cc1cccc(N2CCN(CCN)CC2)c1C | < 4.38
Cc1ccc(C(=O)ON=C(/C=C/c2ccccc2)/C=C/c2ccccc2)cc1 | < 4.38
CNCCCC1Sc2ccccc2C(C)c2ccccc21 (stereo unspecified) | < 4.68

* * *

pIC50 overview
- assayInfo: DNDI: Cytotoxicity against human MRC-5 lung fibroblast cells.
- experimentalContext: IC50
pIC50: −log10 of the molar value.

compound | pIC50
CC(C)c1ccc(OCc2ccc(C(=O)NCCN(C)C)cc2)cc1 | < 4.68
CNC(C)(C)Cc1c2c(cc3c1CCC3)CCC2 | < 4.38
O=C(N/N=C/c1ccc(Cl)cc1Cl)c1ccc(O)c(O)c1 | < 4.68
Cc1cc(Cl)c2c(N)c(C)cc(C)c2n1 | < 4.38
CCOc1cc2c(cc1OCC)C(c1ccc(Br)cc1)NCC2 (stereo unspecified) | < 4.38
Oc1c(Cl)cc(CN2CCOCC2)c2cccnc12 | < 4.68
Cc1nc2ncnn2c(Sc2ccccc2NC(=O)c2cccc(F)c2)c1C | < 4.68
Cc1ccccc1/N=N/C(=N\Nc1ccccc1)c1ccccc1 | < 4.38
CC[n+]1c(/C=C/c2ccc(N(C)C)cc2)sc2ccc(C(=O)OC)cc21 | < 4.68
Cc1cc(C)c2nc(C)cc(Nc3ccc4c(c3)OCCO4)c2c1 | < 4.38
COc1ccc(C(=O)O/N=C(\N)c2ccccc2Cl)cc1OC | < 4.68
COc1cc(C(=O)N/N=C(/C)c2ccccc2O)cc(OC)c1OC | < 5.38
CCC(C)NC(=O)c1nc(-c2ccccc2)cnc1N (stereo unspecified) | < 4.38
COc1ccc(C(C)(C)C#Cc2c(C)nc(N)nc2N)cc1 | < 5.38
CCOC(=O)/C=C\n1nnc2ccccc21 | < 4.38
CCOC(=O)N/N=C1/c2ccccc2-c2nc3nonc3nc21 | < 4.68
O=C(NC(c1ccccc1F)c1ccc2cccnc2c1O)c1ccccc1 (stereo unspecified) | < 5.38
COc1cccc(NC(=O)CSc2cccc3cccnc23)c1 | < 4.38
Oc1c(C(c2ccc(C(F)(F)F)cc2)N2CCOCC2)ccc2cccnc12 (stereo unspecified) | < 4.68
CCN(CC)c1ccc(/C=N/NC(=O)c2cccs2)c(O)c1 | < 4.38
CC(=O)O[C@H]1CCC2C3CCC4=CC(=O)CC[C@]4(C)C3C(=O)C[C@@]21C (stereo partly specified) | 5.19
O=C(NC(c1ccc2c(c1)OCO2)c1ccc2cccnc2c1O)c1ccccc1 (stereo unspecified) | < 5.38
COc1ccc(/C(N)=N/OC(=O)c2ccccc2Cl)cc1 | < 4.68
Cc1ccccc1Cn1c(=N)n(CC(O)c2ccco2)c2ccccc21 (stereo unspecified) | < 4.68
CCn1ccnc1-c1cccc(-c2ccccn2)n1 | < 5.98
C=CCN(CC=C)Cc1c(O)ccc2c(=O)c(-c3ccccc3Cl)coc12 | < 4.38
CCCOc1ccc(C(=O)Nc2ccc(Cc3ccncc3)cc2)cc1 | 5.34
O=C(N/N=C(\c1ccccc1)c1ccccn1)c1ccccc1Cl | < 5.38
CCc1ccc(/C=N\n2cnnc2)cc1 | < 4.38
CCCC(=O)Nc1ccc(Cl)c(-c2nc3ncccc3o2)c1 | < 4.38
O=c1nc2oc3ccc4ccccc4c3cc-2c(=O)[nH]1 | < 4.68

* * *

- assayInfo: DNDI: Cytotoxicity against human MRC-5 lung fibroblast cells.
- experimentalContext: IC50
reportedProperty: IC50

compound | measuredValue
O=C(N/N=C/c1cc(Cl)ccc1O)c1ccc(F)cc1 | > 20.8 µM
Cc1ccc(O)c(NC(=O)c2nc(N)n(C)n2)c1 | 1.84 µM
COc1ccc(-n2nc(N3CCCC(C(=O)NC4CCCC4)C3)ccc2=O)cc1 (centres undefined) | > 41.7 µM
CCCCn1c(=N)n(CC(O)c2ccc(Br)cc2)c2ccccc21 (centres undefined) | > 20.8 µM
CNCc1ccccc1Sc1cccc2ccccc12 | > 41.7 µM
O=C(CSc1cccc2cccnc12)c1ccc(Cl)cc1Cl | > 41.7 µM
NCCc1c[nH]c2ccc(C3CCCCC3)cc12 | > 20.8 µM
CCc1nnc(NC(=O)c2cc3ccc4ccc(C)nc4c3[nH]2)s1 | > 41.7 µM
N=C(N)N/N=C(/C=C(\c1ccc(Cl)cc1)n1ccnc1)c1ccc(Cl)cc1 | > 10.4 µM
N=C(N)N/N=C(\c1ccc(Cl)cc1)c1ccc(Cl)s1 | > 4.17 µM
CC[n+]1c(/C=C2\SC=C(c3ccccc3)N2C)ccc2cc(C)ccc21 | > 10.4 µM
O=C(CNc1ccc(Cl)cc1)N/N=C/c1cccnc1 | > 4.17 µM
COc1cc2nc(N(C)C)nc(N)c2cc1OC | > 20.8 µM
Cc1ccc(/N=N/c2ccc(O)c3ncccc23)cc1C | > 20.8 µM
Cc1cccc2ccc(/C=C/c3ccc(N(C)C)cc3)[n+](C)c12 | > 4.17 µM
NC(=NOC(=O)c1cccc2ccccc12)c1ccccn1 | > 20.8 µM
NCCNCCOC(c1ccc(Cl)cc1)c1ccc(Cl)cc1 | 5.61 µM
Cc1cc(C)c2c(N)c3cccc(C)c3nc2n1 | 0.9 µM
CC1(C)N=C(N)N=C(N)N1OCc1cccc(C2CCCCC2)c1 | > 41.7 µM
CCOC(=O)c1ccc(CCCCCON2C(N)=NC(N)=NC2(C)C)cc1 | > 1.04 µM
COc1ccc(N2C(=O)CN(Cc3ccccc3)C2=S)cc1Cl | > 41.7 µM
O=C(CCN1CCCCC1)Nc1ccc(OC(F)(F)Cl)cc1 | > 41.7 µM
COc1ccccc1NC(=O)c1cc(Cl)nnc1Cl | > 20.8 µM
N=C(NOC(=O)CC1CCCCC1)c1cccnc1 | > 41.7 µM
O/N=C1\C=Cc2[nH]c(-c3ccccc3)cc2\C1=N/O | 0.721 µM
CC1(C)CC(NC2=C(Cl)C(=O)c3ccccc3C2=O)CC(C)(C)N1 | 5.07 µM
CC(Cc1ccco1)NC(=O)c1cccc(NC(=O)C2=CSCCO2)c1 (centres undefined) | > 41.7 µM
CCOc1cc2c(cc1OCC)C(/C(Cl)=C/c1ccccc1)NCC2 (centres undefined) | > 41.7 µM
C/C(=N\NC(=O)c1cccc(I)c1)c1ccc(O)cc1O | 3.73 µM
CCOc1cc(-n2ncc(Cl)c(Cl)c2=O)nc(SC)n1 | > 4.17 µM
COc1ccc2c(c1)C(=NN=C(N)N)c1cc(OC)ccc1-2 | > 41.7 µM
NCCCCCOC(c1ccc(F)cc1)c1ccc(F)cc1 | > 41.7 µM
CCN1CCCC(Nc2ccnc3cc4ccccc4cc23)C1 (centres undefined) | 4.95 µM
CC(C)(C)c1cc(C(c2ccccc2O)N2CCCCC2)cc(C(C)(C)C)c1O (centres undefined) | > 41.7 µM
c1ccc(COc2ccc(-c3cc(C4CCNCC4)[nH]n3)cc2)cc1 | > 10.4 µM
CC(C)(C)c1ccc(C(=O)O/N=C(\N)c2ccncc2)cc1 | > 41.7 µM
CC(C)NCC(O)CNc1cccc2c1C(=O)c1ccccc1C2=O (centres undefined) | > 4.17 µM
COc1ccc(C2=C(C)C(=O)C(C)=C(C)C2=O)cc1 | > 20.8 µM
CCn1c2cccc(=O)c-2nc2ccccc21 | > 20.8 µM
CC(C)(C)c1ccc(OCCCCCCN2CCNCC2)cc1 | > 20.8 µM
Cc1cc(C)[n+]2nc3n(-c4ccccc4)c(C)cc(C)c-3c2n1 | > 41.7 µM
C/C(Cl)=C\CN1C(=O)C(=O)c2cc(Cl)ccc21 | > 41.7 µM
N=C(N)N/N=C1/C(=O)Nc2ccc(Br)cc21 | > 41.7 µM
COc1ccccc1C(CCNC(C)c1ccccc1)C1CCOC(C)(C)C1 (centres undefined) | > 41.7 µM
Cn1ccnc1Sc1cnn(-c2ccccc2)c(=O)c1Cl | > 20.8 µM
NCCNCCC=C(c1ccc(F)cc1)c1ccc(F)cc1 | > 20.8 µM
CC1=NN(C(=O)c2ccccc2O)C(C)(O)C1 (centres undefined) | > 1.04 µM
CCc1ccc(NS(=O)(=O)c2cc(-c3cc(C)n[nH]3)ccc2C)cc1 | > 4.17 µM
CC1(C)CC(=O)C(C2=C(Cl)C(=O)c3ccccc3C2=O)=C(O)C1 | > 41.7 µM
